Please go through the items and note down their % isomer 2.
experiment: Isomerization study in PBS at pH 7.4 via HPLC-MS; format: physicochemical; details: 24 h, PBS pH 7.4, 50 μM, 1% DMSO
One number for each entry, in %.

Recorded results for 3 compounds are shown here.
- compound: "CN(C)c1cccnc1C=NNC(N)=S [(Z)-Me2NNH2]"
  measured.value: 94
- compound: "CNc1cccnc1/C=N/NC(=S)N(C)C.Cl"
  measured.value: 2
- compound: "CN(C)c1cccnc1C=NNC(N)=S [(E)-Me2NNH2]"
  measured.value: 92

Per the record, "CNC(=S)N/N=C/c1ncccc1NC" has % isomer 2 of 1
